Source: ChEMBL document CHEMBL1201862

# experiment: blockers of CRF-binding protein–CRF-R2 complex – cell-based, uHTS hits, 384-well, dose response (AID 651639)
# Type: functional, Homo sapiens
# measurement.conditions: read-out: IC50_Mean
Calls of active or inactive are those of the source.
One label from this list, please: active, inactive

The following molecules have reported results that may help.
COC(=O)c1ccc(NC(=O)c2ccccc2NS(=O)(=O)c2ccccc2)cc1
inactive
COc1ccc([N+](=O)[O-])cc1NCc1ccccc1
active
CC(=O)N(C(C)=O)c1cccc(N(Cc2ccccc2)Cc2ccccc2)c1
inactive
COc1cccc2ccc(CC(O)(c3ccccc3)c3ccccc3)nc12
inactive

Consider the record given below.
Please indicate how the test categorized CCN(CC)S(=O)(=O)c1ccc(Cl)c(NC(=O)c2cc(Cl)cc(Cl)c2)c1 .
inactive

###

# experiment: luciferase reporter signal suppression in cells – H4 neuroglioma cells, luminescence, dose response (AID 1990)
# Type: functional, cell-based
Active and inactive are the calls of the source.
property.label: EC50

Record excerpt, results attached:
CCOc1cc(N2CCOCC2)c(OCC)cc1NC(=O)c1cc(-c2ccco2)nc2ccccc12
> 120 µM (not active)
CCOC(=O)c1c(C)[nH]c2c1-c1ccccc1C(=O)C2=O
3.02 µM (active)
CCN1C/C(=C/c2ccc(OC)c(O)c2)C(=O)/C(=C/c2ccc(OC)c(O)c2)C1
0.374 µM (inconclusive)

Look up EC50 for this compound: CCOC(=O)c1ccc(-c2c(-c3cc(OC)c(OC)c(OC)c3)noc2C)cc1F
9.94 µM (inconclusive)

Look up EC50 for this compound: Cc1nc2c(ccc3nc(NC(=O)Cc4cccc5ccccc45)sc32)s1
16.3 µM (active)

Look up EC50 for this compound: N#CCn1c2ccccc2c2nc3ccccc3nc21
23.3 µM (active)

###

# experiment: viability of HCT116 lacking mutant beta-catenin – cell-based, human colon tumor, dose response (AID 1045);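 also: HCT116 colon tumor cells with beta catenin knocked out; cells exposed to compound for 60 hours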
# Assay type: functional
Structures can show the parent of a compound that is named as a salt. Calls of active or inactive are those of the source.
Measured EC50 accompanies every entry in the list below.

Record excerpt, results attached:
CCN(CC)S(=O)(=O)c1ccc(NC(=O)Nc2cccc(C(F)(F)F)c2)cc1
6.35 µM (active)
CCC(NC(C)C)C(O)c1ccc(O)c(O)c1 (centres undefined) [ISOETHARINE MESYLATE]
20.7 µM (active)
CCOC(=O)c1cc(CC)sc1NC(=O)c1ccc([N+](=O)[O-])c(N2CCOCC2)c1
34.2 µM (active)

# next compound below
Look up EC50 for this compound: CC1=CC(C)(C)Nc2ccc(OC(=O)c3ccco3)cc21
5.59 µM (active)

###

# measured.on: UniProt:Q9XUB2
# Sequence (Q9XUB2 whole entry): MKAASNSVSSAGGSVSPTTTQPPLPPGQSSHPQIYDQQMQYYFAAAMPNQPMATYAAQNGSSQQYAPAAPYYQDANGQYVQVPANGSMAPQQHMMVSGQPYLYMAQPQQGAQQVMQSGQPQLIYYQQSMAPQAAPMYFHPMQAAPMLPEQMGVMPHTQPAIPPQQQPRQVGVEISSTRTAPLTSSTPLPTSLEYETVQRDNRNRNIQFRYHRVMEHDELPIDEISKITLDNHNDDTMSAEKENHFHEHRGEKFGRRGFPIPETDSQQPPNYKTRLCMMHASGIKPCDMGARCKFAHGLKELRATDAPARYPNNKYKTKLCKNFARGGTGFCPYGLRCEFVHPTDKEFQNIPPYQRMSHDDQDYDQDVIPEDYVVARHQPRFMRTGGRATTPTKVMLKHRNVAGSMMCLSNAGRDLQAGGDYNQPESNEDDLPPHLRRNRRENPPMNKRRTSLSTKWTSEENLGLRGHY
# experiment: potency of MEX-5 RNA-binding blockers – biochemical, C. elegans, fluorescence polarization, dose response (AID 1960)
Structures can show the parent of a compound that is named as a salt. Calls of active or inactive are those of the source.
property.label: EC50

Record excerpt, results attached:
Cc1ccc(S(=O)(=O)NNc2nc3ccccc3nc2C(F)(F)F)cc1
21.5 µM (inconclusive)
CCC(NC(C)C)C(O)c1ccc(O)c(O)c1 (stereo not given) [ISOETHARINE MESYLATE]
125 µM (active)
COc1ccc(C2C(C#N)=C(/N=C/N3CCN(C)CC3)OC3=C2C(=O)CC(C)(C)C3)cc1OC (stereo not given)
> 300 µM (not active)
CCCn1c(N)c(N(CCOC)C(=O)Cc2ccc(S(=O)(=O)N3CCOCC3)s2)c(=O)[nH]c1=O
> 300 µM (not active)
CC1(OC(=O)CCc2ccccc2)C(=O)C=C2C=C(c3ccsc3)OC=C2C1=O (stereo not given)
28.2 µM (active)

Look up EC50 for this compound: COc1ccc(C(=O)NNC(=O)c2cnccn2)cc1[N+](=O)[O-]
1.72 µM (active)

Look up EC50 for this compound: CCOC(=O)COn1c(=O)c(-c2cc3ccccc3o2)[n+]([O-])c2ccccc21
27.6 µM (active)

Look up EC50 for this compound: COc1cccc(/C=N/Nc2ncnc(N)c2[N+](=O)[O-])c1OC
> 300 µM (inconclusive)

Look up EC50 for this compound: O=C1N=C(Nc2ccccc2Cl)S/C1=C\c1cc([N+](=O)[O-])ccc1O
> 300 µM (not active)

Look up EC50 for this compound: CCOC(=O)C1Nc2c(F)cc(C)cc2C2C=CCC12 (stereo not given)
> 300 µM (not active)

###

# measured.on: Paired box protein Pax-8 (Homo sapiens, UniProt Q06710)
# Sequence (Q06710 whole entry): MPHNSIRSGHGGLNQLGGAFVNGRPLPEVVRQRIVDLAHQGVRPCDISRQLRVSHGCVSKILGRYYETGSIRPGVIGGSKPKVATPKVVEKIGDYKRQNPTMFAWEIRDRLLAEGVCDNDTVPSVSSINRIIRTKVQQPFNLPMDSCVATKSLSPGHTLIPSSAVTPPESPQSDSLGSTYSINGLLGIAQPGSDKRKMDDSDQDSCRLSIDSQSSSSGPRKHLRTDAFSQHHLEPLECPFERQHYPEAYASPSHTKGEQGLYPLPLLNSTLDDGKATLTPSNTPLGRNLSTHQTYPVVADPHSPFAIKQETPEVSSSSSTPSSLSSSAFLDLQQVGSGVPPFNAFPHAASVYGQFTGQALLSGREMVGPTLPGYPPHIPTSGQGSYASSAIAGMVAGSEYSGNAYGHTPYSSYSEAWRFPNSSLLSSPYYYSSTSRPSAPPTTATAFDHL
# experiment: PAX8 transcriptional activity inhibition in RMG-I – RMG-I cells, luciferase, cherry-pick, dose response (AID 687027);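 also: luciferase reporter driven by Pax8 target thyroperoxidase promoter measured by SteadyGlo luminescence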
# Assay type: functional, cell-based
Calls of active or inactive are those of the source.
Measured AC50 accompanies every entry in the list below.

Record excerpt, results attached:
C[C@@H]1CCCCO[C@H](CN(C)Cc2ccc(C(F)(F)F)cc2)[C@@H](C)CN([C@@H](C)CO)C(=O)c2cc(NS(=O)(=O)c3ccc(Cl)cc3)ccc2O1
6.82 µM (active)
CSC(=Nc1ccccc1)N=C(SCc1ccccc1)N(C)C
4.55 µM (active)

Look up AC50 for this compound: O=C(C1CCC1)N1CC(=O)N2[C@H](CO)[C@H](c3ccc(C#CCc4ccccc4)cc3)[C@H]2C1
24.3 µM (active)

Look up AC50 for this compound: C[C@@H]1CN([C@H](C)CO)C(=O)c2cc(NC(=O)Nc3ccc(F)cc3)ccc2O[C@@H](C)CCCCO[C@@H]1CN(C)Cc1ccc(Cl)c(Cl)c1
8.1 µM (active)

Look up AC50 for this compound: COc1ccc(CN(C)C[C@@H]2OCCCC[C@H](C)Oc3ccc(NC(=O)Nc4ccc(C(F)(F)F)cc4)cc3C(=O)N([C@@H](C)CO)C[C@H]2C)cc1
14.6 µM (active)

Look up AC50 for this compound: CCOC(=O)c1c(C)[nH]c2c1-c1ccccc1C(=O)C2=O
1.05 µM (active)

Look up AC50 for this compound: COC(=O)[C@@]12C[C@@H](CC(=O)N3CCN(C(=O)c4ccco4)CC3)C(=O)N(Cc3ccccc3)C1=CCC(C)(C)C2
1.81 µM (active)

###

# Tested on: BJ
# experiment: BJ-TERT-LT-ST fibroblast viability loss – cell-based, RAS-independent, luminescence, dose response (AID 1935);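 also: BJ fibroblasts immortalized with TERT plus LT and ST oncogenes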
# Type: functional
# measurement.conditions: Homo sapiens
Activity calls are given as the source filed them.
property.label: EC50

CCCOc1ccccc1C1CC(=O)NC2=C1C(=O)CCC2 (stereo not given)
17.2 µM (active)

Look up EC50 for this molecule: COc1cccc2sc(Nc3nc4ccc(NC(C)=O)cc4s3)nc12
> 150 µM (not active)

Look up EC50 for this molecule: O=[N+]([O-])c1ccccc1N/N=C\c1ccccc1Cl
> 150 µM (not active)

Look up EC50 for this molecule: CC(=O)NC(c1ccc2ccccc2c1)c1ccc2cccnc2c1O (stereo not given)
6.07 µM (inconclusive)

Look up EC50 for this molecule: O=C(CCl)Nc1ccc(Oc2cnc3ccccc3n2)cc1
> 75 µM (inconclusive)

###

Measured EC50 accompanies every entry in the list below.
# measured.on: Mitochondrial peptide methionine sulfoxide reductase (Bos taurus, UniProt P54149)
# Sequence (P54149 whole entry): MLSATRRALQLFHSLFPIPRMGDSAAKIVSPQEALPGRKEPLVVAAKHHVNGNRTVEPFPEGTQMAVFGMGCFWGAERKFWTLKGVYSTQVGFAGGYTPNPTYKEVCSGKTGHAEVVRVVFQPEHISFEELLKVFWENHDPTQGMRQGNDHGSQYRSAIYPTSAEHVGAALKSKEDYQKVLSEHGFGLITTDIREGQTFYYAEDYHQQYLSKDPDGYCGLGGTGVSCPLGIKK
# experiment: Absorbance-based biochemical high throughput dose response assay for activators of Methionine sulfoxide reductase A (MsrA).
# Format: functional
Active and inactive are the calls of the source.

COCc1cc(=O)[nH]c(=S)[nH]1
> 104 µM (inactive)
CCCCC(=O)NNC(=S)NC(=O)c1ccc([N+](=O)[O-])cc1
> 104 µM (inactive)
O=C(c1ccccc1)c1coc2c1C(=O)c1ccccc1C2=O
37.7 µM (inactive)

# next compound below
Look up EC50 for this compound: O=C1C(Cl)=C(Nc2ccc3cn[nH]c3c2)C(=O)c2ccccc21
> 104 µM (inactive)

###

# System: BJ
# experiment: growth inhibition of engineered Ras-driven BJ cells – cell-based, alamar blue fluorescence, cherrypicked samples, dose response (AID 2631);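 also: confirmatory dose-response assay in RAS-dependent BJ fibroblasts engineered with TERT, LT and ST, with cytotoxicity read by fluorescence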
# Assay type: functional
# measurement.conditions: Homo sapiens
Activity calls are given as the source filed them.
property.label: EC50

Record excerpt, results attached:
O=[N+]([O-])c1ccccc1N/N=C\c1ccccc1Cl
> 133 µM (inactive)
CCOc1ccc(OCc2cccc(C(=O)O)c2)cc1
> 133 µM (inactive)
Cc1cccc2cc(C#N)c(SCC(=O)N3CC(=O)Nc4ccccc43)nc12
< 0.104 µM (active)

Look up EC50 for this compound: C/C(=N\Nc1ccc2nncn2n1)c1ccccn1
0.912 µM (active)
